Overview of reported IC50 across a group of molecules:
- target.or.system: SF9 affinity purified rat FPT (Rattus norvegicus, UniProt Q02293+Q04631)
- Construct: made in house; host or cells: Sf9 insect cells
- measurement.description: PFT (farnesyl protein transferase) inhibitory activity, radiolabeled farnesyl pyrophosphate / biotinyl peptide bead assay
- Format: biochemical
- measurement.conditions: average of two tests unless n is given in parentheses; read-out: FTase, IC50
measurement.name: IC50 (nM)

>>> observed_measurement("O=C1C(=Cc2ccccc2)CCc2cc(OCCc3c[nH]cn3)ccc21")
890
>>> observed_measurement("CSc1ccc(C=C2CCc3cc(OCCc4c[nH]cn4)ccc3C2=O)cc1")
590
>>> observed_measurement("CC1(C)CC(=O)c2ccc(OCCn3ccnc3)cc2O1")
900
>>> observed_measurement("O=c1ccoc2cc(OCCn3ccnc3)ccc12")
2600
>>> observed_measurement("O=C1C(=Cc2ccc(Cl)s2)CCc2cc(OCCn3ccnc3)ccc21")
320

* * *

- target.or.system: SF9 affinity purified rat FPT (Rattus norvegicus, UniProt Q02293+Q04631)
- Construct: made in house; host or cells: Sf9 insect cells
- measurement.description: PFT (farnesyl protein transferase) inhibitory activity, radiolabeled farnesyl pyrophosphate / biotinyl peptide bead assay
- Assay type: biochemical
- measurement.conditions: average of two tests unless n is given in parentheses; read-out: FTase, IC50
Counter-ions that a name gives are not always drawn.
Note: every record was labeled by where its IC50 sits among low: < 0.5 µM; medium: ≥ 0.5 µM and < 4 µM; high: ≥ 4 µM

>>> label("O=C1CCOc2cc(OCCn3ccnc3)ccc21")
"high"
>>> label("O=C(O)c1ccc(C=C2CCc3cc(OCCc4c[nH]cn4)ccc3C2=O)s1")
"high"
>>> label("O=C1C(=Cc2ccccn2)CCc2cc(OCCn3ccnc3)ccc21")
"medium"
>>> label("CC(C)(CNC(=O)CON=C1CCCc2cc(OCCn3ccnc3)ccc21)c1ccccc1")
"medium"
>>> label("O=C1C(=Cc2cccs2)CCc2cc(OCCc3c[nH]cn3)ccc21")
"low"
>>> label("Cc1nccn1CCOc1ccc2c(c1)CCCC2=O")
"high"
>>> label("O=C1C(=Cc2cccs2)CCc2cc(OCCn3ccnc3)ccc21")
"low"
>>> label("O=C(O)c1ccc(C=C2CCc3cc(OCCc4c[nH]cn4)ccc3C2=O)cc1 [Example 35, ditrifluoroacetate]")
"medium"
>>> label("CSc1ccc(C=C2CCc3cc(OCCc4c[nH]cn4)ccc3C2=O)s1.Cl [Example 32, monohydrochloride]")
"high"
>>> label("O=C1C(=Cc2ccc([N+](=O)[O-])s2)CCc2cc(OCCn3ccnc3)ccc21")
"low"
>>> label("CC(=C1CCc2cc(OCCc3c[nH]cn3)ccc2C1=O)c1ccccc1")
"high"
>>> label("O=C(CON=C1CCCc2cc(OCCn3ccnc3)ccc21)NCC1(c2ccccc2)CCC1")
"low"
>>> label("CCN(CC)C(=O)c1ccc(C=C2CCc3cc(OCCc4c[nH]cn4)ccc3C2=O)cc1.Cl [Example 34, monohydrochloride]")
"high"
>>> label("O=C1/C(=C/C=C/c2ccccc2)CCc2cc(OCCn3ccnc3)ccc21")
"medium"
>>> label("O=C1C(=Cc2ccc(Cl)s2)CCc2cc(OCCc3c[nH]cn3)ccc21 [Example 36, hydrochloride]")
"medium"
>>> label("O=C1C(=Cc2ccco2)CCc2cc(OCCn3ccnc3)ccc21")
"low"
>>> label("Cc1ccsc1C=C1CCc2cc(OCCc3c[nH]cn3)ccc2C1=O")
"medium"
